- tested on: T1, human ROR1-Fz (Homo sapiens, UniProt Q01973)
- T1 construct: Frizzled (Fz, residues 165-305); His6 (C); purchased Acro Biosystems; host or cells: HEK293
- T1 sequence (Q01973 165-305): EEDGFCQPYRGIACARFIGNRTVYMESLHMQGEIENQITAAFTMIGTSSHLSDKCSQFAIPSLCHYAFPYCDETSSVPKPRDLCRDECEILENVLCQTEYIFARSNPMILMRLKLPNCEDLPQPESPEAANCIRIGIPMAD
- experimental details: Biacore off-rate and kinetic analysis, ROR1-Fz
- Format: binding
- condition label: Table 11; SP34 light chain
This listing pairs molecules with measured Biacore human ROR1-Fz ka.
State the answer as a number, implicitly in M⁻¹ s⁻¹.

- molecule: "SRP2196-C01 (antibody, V domains shown) VH: EVQLVESGGGLVQPGGSLRLSCAASGFNIIGYYIHWVRQAPGKGLEWVGSITPLSGATSKADSVKGRFTISADTSKNTAYLQMNSLRAEDTAVYYCARDSRRYIRSWDYWGQGTLVTVSS VL: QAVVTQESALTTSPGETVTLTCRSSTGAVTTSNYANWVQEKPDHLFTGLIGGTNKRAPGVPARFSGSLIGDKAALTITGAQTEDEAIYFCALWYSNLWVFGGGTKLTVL"
  unit annotation: "M⁻¹ s⁻¹"
  endpoint value: 125000

Now turn to the next molecule.
Task item: Endpoint output: Biacore human ROR1-Fz ka of SRP2196-B10 (antibody, V domains shown) VH: EVQLVESGGGLVQPGGSLRLSCAASGFNITGYYIHWVRQAPGKGLEWVGSITPLSGATSKADSVKGRFTISADTSKNTAYLQMNSLRAEDTAVYYCARDSRRYIRSWDYWGQGTLVTVSS VL: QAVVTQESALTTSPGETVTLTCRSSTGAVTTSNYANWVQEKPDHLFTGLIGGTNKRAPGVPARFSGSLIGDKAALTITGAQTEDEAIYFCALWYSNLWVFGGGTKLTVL . Value?
Reply: 128000
